Molecular target: AnCE (Drosophila melanogaster)
Construct: made in house; host or cells: Pichia pastoris GS115 (vector pPiC9), purified from the culture supernatant
Sequence (Q10714 18-615): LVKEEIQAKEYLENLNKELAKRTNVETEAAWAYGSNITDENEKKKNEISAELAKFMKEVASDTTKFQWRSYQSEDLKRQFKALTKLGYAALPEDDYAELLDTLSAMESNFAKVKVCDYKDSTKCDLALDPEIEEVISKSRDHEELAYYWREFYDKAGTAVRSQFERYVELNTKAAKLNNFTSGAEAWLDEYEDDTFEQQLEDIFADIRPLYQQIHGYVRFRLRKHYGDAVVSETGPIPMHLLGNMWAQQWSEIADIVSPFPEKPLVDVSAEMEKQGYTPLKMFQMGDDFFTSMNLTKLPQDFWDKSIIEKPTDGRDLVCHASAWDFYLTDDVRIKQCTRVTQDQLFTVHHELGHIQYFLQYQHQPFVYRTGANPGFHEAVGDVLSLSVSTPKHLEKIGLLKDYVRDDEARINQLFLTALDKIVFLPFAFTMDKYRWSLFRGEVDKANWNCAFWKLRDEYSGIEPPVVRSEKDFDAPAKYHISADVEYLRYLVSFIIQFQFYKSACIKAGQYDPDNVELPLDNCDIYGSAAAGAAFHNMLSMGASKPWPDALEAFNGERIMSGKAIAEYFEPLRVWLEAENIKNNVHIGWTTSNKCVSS
Assay: Inhibition of AnCE activity, fluorogenic Abz-FRK(Dnp)-P substrate assay
Type: biochemical
Details: AnCE; values restated in µM in the text
Protocol: Enzyme assays were performed using the internally quenched fluorogenic peptide Abz-FRK(Dnp)-P (Enzo Life Sciences Ltd., Exeter, UK) as a substrate for 25 ng of AnCE in 200 µL of 100 mM HEPES buffer pH 7.5 with 50 mM NaCl and 10 µM ZnCl2. […] IC50 values were determined using the non-linear regression curve-fitting software [log(inhibitor) vs. response] of GraphPad Prism 7.01 (GraphPad Software, San Diego, CA, USA). […]
Residues, ends and D or L forms follow the SMILES beside them.
quantity.kind: Ki

[[record]]
compound = "NC(N)=NCCC[C@H](N)C(=O)N[C@@H](Cc1c[nH]c2ccccc12)C(=O)O [RW] (H-Arg-Trp-OH)"
result_value = "200 µM"


All values here come from paper PMC12025037.
